All values here come from paper PMC5958115.

subject.of.test: mouse P23H-opsin mutant (Mus musculus, UniProt P15409, P23H)
assay.details: β-Gal fragment complementation assay: rescue of P23H opsin transport from ER to plasma membrane, U2OS(PLC-EA/P23H-PK) cells
Type: cell-based
assay.context: modifications of the furan-2(5H)-one ring; read-out: Potency
quantity.measured: pEC50
In simple prose, pEC50 is minus the logarithm base ten of a concentration in moles per litre.

**Q:** # lookup: pEC50 of O=C1NCC(c2ccc(Cl)s2)=C1c1cccs1
**A:** 4.61

* * *

subject.of.test: mouse P23H-opsin mutant (Mus musculus, UniProt P15409, P23H)
assay.details: β-Gal fragment complementation assay: rescue of P23H opsin transport from ER to plasma membrane, U2OS(PLC-EA/P23H-PK) cells
Format: cell-based
assay.context: U2OS; read-out: Efficacy (%)
# binarize Emax: threshold 30% inclusive, high side Met, low side Not met

**Q:** In plain terms: is recorded Emax at least 30% for Cc1c(F)cccc1C1=C(c2ccc(Cl)s2)COC1=O ?
**A:** Met

**Q:** Say whether O=C1NCC(c2ccc(Cl)s2)=C1c1cccs1 shows Emax of 30% or more.
**A:** Not met

**Q:** Is reported Emax greater than or equal to 30% here: O=C1OCC(c2ccc(Cl)s2)=C1c1ccc(F)cc1
**A:** Met

**Q:** Record COc1cccc(C2=C(c3ccc(Cl)s3)COC2=O)c1Cl ; criterion: Emax no lower than 30%. Met?
**A:** Met

**Q:** Check this compound for Emax at or above 30%: O=C1OCC(c2ccc(Cl)s2)=C1c1ccc(Cl)cc1Cl
**A:** Not met

**Q:** Hi team, for COc1ccc(C2=C(c3ccc(Cl)s3)COC2=O)cc1 , is the recorded Emax at or above 30%?
**A:** Not met

**Q:** Quick check, Emax >= 30%? O=C1OCC(c2ccc(Cl)s2)=C1c1ccccc1
**A:** Met

**Q:** Does Emax meet or surpass 30% for O=C1OCC(c2ccc(Cl)s2)=C1c1ccsc1 ?
**A:** Met

**Q:** Is it the case that O=C1OCC(c2ccc(Cl)s2)=C1c1cccc(F)c1 has Emax reaching or exceeding 30%?
**A:** Met

**Q:** Emax >= 30% for O=C1OCC(c2ccc(Cl)s2)=C1c1ccccc1F ?
**A:** Met

* * *

subject.of.test: mouse P23H-opsin mutant (Mus musculus, UniProt P15409, P23H)
assay.details: β-Gal fragment complementation assay: rescue of P23H opsin transport from ER to plasma membrane, U2OS(PLC-EA/P23H-PK) cells
Type: cell-based
assay.context: 24 h; 5 µM 9-cis-retinal = 100%; experimental maximum
Note to self: β-Gal fragment complementation assay Activity score (%) Max (Exp) under 60% means fulfilled, ties and anything higher get not fulfilled.

These recorded examples may help you get a feel for the data.
- structure.notation: "O=C(NCCn1ncc2c(NCc3ccco3)ncnc21)c1cc(-c2ccccc2)on1"
  answer.label: "fulfilled"
- structure.notation: "O=C(NCC#CCN1CCCC1)c1cc(-c2ccccc2)on1"
  answer.label: "fulfilled"
- structure.notation: "O=C(NCCCOc1cccc2cccnc12)c1cc(-c2ccccc2)on1"
  answer.label: "fulfilled"
- structure.notation: "O=C(NCCCn1cccc1)c1cc(-c2ccccc2)on1"
  answer.label: "fulfilled"
- structure.notation: "Cc1cc(OCC(=O)Nc2cc(N3CCOCC3)ncn2)cc(C)c1Cl"
  answer.label: "not fulfilled"

**Q:** Dear colleague, could you confirm whether β-Gal fragment complementation assay Activity score (%) Max (Exp) of O=C(C1CC1)N(CCn1cccn1)c1nc2c(Cl)cccc2s1 falls below 60%? Thanks.
**A:** not fulfilled

* * *

subject.of.test: mouse P23H opsin (Mus musculus, UniProt P15409, P23H)
Construct: expressed in transfected cells
assay.details: High-content imaging analysis of P23H opsin immunostaining in NIH3T3-(P23H opsin/GFP) cells
Type: cell-based
assay.context: cell-surface immunostaining, non-permeabilized, Fig. 2j; read-out: EC50, opsin on the plasma membrane (Opsin INT)
quantity.measured: pEC50
// pEC50 here means minus log10 of the molar concentration (mol/L)

- compound: "CC1=C(/C=C/C(C)=C\\C=C\\C(C)=C\\C=O)C(C)(C)CCC1 [9-cis-retinal, reference compound]"
  value.observed: 6.42

# next compound below
**Q:** // lookup pEC50 | system=mouse P23H opsin (Mus musculus, UniProt P15409, P23H) | key= O=C1OCC(c2ccc(Cl)s2)=C1c1cccs1
**A:** 5.49

* * *

Documented pEC50 across a set of molecules
subject.of.test: mouse P23H-opsin mutant (Mus musculus, UniProt P15409, P23H)
assay.details: β-Gal fragment complementation assay: rescue of P23H opsin transport from ER to plasma membrane, U2OS(PLC-EA/P23H-PK) cells
Format: cell-based
assay.context: modifications linked to C3 of the furan-2(5H)-one ring; 10 doses 0.156-80 µM; read-out: Potency EC50
// pEC50 is dimensionless: -log10 of concentration (M)

- molecule: "O=C1OCC(c2ccc(Cl)s2)=C1c1ccccc1F [YC-068]"
  pEC50: 5.25
- molecule: "O=C1OCC(c2ccc(Cl)s2)=C1c1ccccc1 [YC-047]"
  pEC50: 5.01
- molecule: "COc1cccc(C2=C(c3ccc(Cl)s3)COC2=O)c1Cl [YC-056]"
  pEC50: 5.03
- molecule: "O=C1OCC(c2ccc(Cl)s2)=C1c1cccs1 [YC-001]"
  pEC50: 5.08

**Q:** // query pEC50 value for entry O=C1OCC(c2ccc(Cl)s2)=C1c1ccc(F)cc1 [YC-053]
**A:** 4.62

**Q:** Can you look up the measured pEC50 of Cc1c(F)cccc1C1=C(c2ccc(Cl)s2)COC1=O [YC-054] for me?
**A:** 5.45

* * *

subject.of.test: P23H opsin (Mus musculus, UniProt P15409, P23H)
Construct: expressed in transfected cells
assay.details: Immunoblot of P23H opsin glycosylation in NIH3T3 cell lysates
Assay type: cell-based
Parameters: key: n = no; y = yes
assay.context: P23H opsin
Protocol: NIH3T3-(P23H opsin/GFP) or NIH3T3-(WT-opsin/GFP) cells were seeded in a 48-well plate (Corning Costar) at 3.2 × 10^5 cells per well and incubated at 37 °C with 5% CO2 for 2 h. […] Protein concentrations were determined with the Bradford assay. […] Band intensities were measured with ImageJ software (http://imagej.nih.gov/ij/; National the Institutes of Health, Bethesda, MD, USA) and normalized to a glyceraldehyde 3-phosphate dehydrogenase (GAPDH) loading control. […]
quantity.measured: Improved glycosylation

- compound: "O=C(NCC#CCN1CCCC1)c1cc(-c2ccccc2)on1"
  value.observed: "n"
- compound: "O=C(C1CC1)N(CCn1cccn1)c1nc2c(Cl)cccc2s1"
  value.observed: "y"
- compound: "O=C(Cn1c2c(c(=O)n(C3CCCCC3)c1=O)CCC2)Nc1cccc(F)c1"
  value.observed: "y"
- compound: "O=C(NCCCOc1cccc2cccnc12)c1cc(-c2ccccc2)on1"
  value.observed: "n"
- compound: "O=C1OCC(c2ccc(Cl)s2)=C1c1cccs1"
  value.observed: "y"
- compound: "CC1=C(/C=C/C(C)=C\\C=C\\C(C)=C\\C=O)C(C)(C)CCC1 [9-cis-retinal, reference compound]"
  value.observed: "y"

**Q:** May I ask what Improved glycosylation has been recorded for O=C(CCCCCN1C(=O)c2cccc3cccc(c23)C1=O)NO [Scriptaid, reference compound] ?
**A:** n

**Q:** // returns reported Improved glycosylation for input O=C(NCCCn1cccc1)c1cc(-c2ccccc2)on1
**A:** n

* * *

subject.of.test: mouse P23H opsin (Mus musculus, UniProt P15409, P23H)
Construct: expressed in transfected cells
assay.details: High-content imaging analysis of P23H opsin immunostaining in NIH3T3-(P23H opsin/GFP) cells
Assay type: cell-based
assay.context: ratio of P23H rod opsin fluorescence on plasma membrane to whole cell
# label = bin(measured Immunostaining HCS MEM-Total ratio Max (fit)), where bins are low band: < 0.02; middle band: ≥ 0.02 and < 0.04; high band: ≥ 0.04

Example cases with answers are listed next.
- compound: "CC1=C(/C=C/C(C)=C\\C=C\\C(C)=C\\C=O)C(C)(C)CCC1 [9-cis-retinal, reference compound]"
  answer.label: "low band"
- compound: "COCCNC(=O)c1sc2c(cnc3ccc(OC)cc32)c1-c1ccccc1 [Compound F3382-5924]"
  answer.label: "high band"
- compound: "O=C(NCCCn1cccc1)c1cc(-c2ccccc2)on1 [Compound F5937-0207]"
  answer.label: "middle band"
- compound: "O=C(NCC#CCN1CCCC1)c1cc(-c2ccccc2)on1 [Compound F6244-1415]"
  answer.label: "high band"
- compound: "O=C1OCC(c2ccc(Cl)s2)=C1c1cccs1 [YC-001]"
  answer.label: "middle band"
- compound: "O=C(Cn1c2c(c(=O)n(C3CCCCC3)c1=O)CCC2)Nc1cccc(F)c1 [Compound F5111-0031]"
  answer.label: "middle band"
- compound: "O=C(CCCCCN1C(=O)c2cccc3cccc(c23)C1=O)NO [Scriptaid, reference compound]"
  answer.label: "high band"
- compound: "O=C(NCCn1ncc2c(NCc3ccco3)ncnc21)c1cc(-c2ccccc2)on1 [Compound F2902-1134]"
  answer.label: "middle band"

**Q:** Entry Cc1cc(OCC(=O)Nc2cc(N3CCOCC3)ncn2)cc(C)c1Cl [Compound F6257-1860] belongs to which category?
**A:** middle band

**Q:** Given O=C(C1CC1)N(CCn1cccn1)c1nc2c(Cl)cccc2s1 [Compound F5581-0240] , name the class its Immunostaining HCS MEM-Total ratio Max (fit) places it in.
**A:** low band
